assay_explanation: Concentration of pesticides and metabolites in hair of rats after 90-day gavage exposure to a pesticide mixture
Type: in vivo, rat
condition_description: exposure expressed as mg/kg per day, concentration as pg/mg, detected values only
Assign Slope (linear fit), concentration in hair versus level of exposure to each entry below.

Some entries whose results are on file:
The molecule identified as O=C(O)c1cccc(Oc2ccccc2)c1 [3-PBA, 3-phenoxybenzoic acid] registered its Slope (linear fit), concentration in hair versus level of exposure at 7.08

molecule Oc1nc(Cl)c(Cl)cc1Cl [TCPy, 3,5,6-trichloro-2-pyridinol] , Slope (linear fit), concentration in hair versus level of exposure observed: 85.6

Input CCOP(=O)(O)OCC [DEP, diethyl phosphate] . Output Slope (linear fit), concentration in hair versus level of exposure: 4.54

So, CC(C)Oc1ccccc1O [2-IPP, 2-isopropoxyphenol] ? Its Slope (linear fit), concentration in hair versus level of exposure was 26.3

***
GET /value?item= CCCN(CCC)c1c([N+](=O)[O-])cc(C(F)(F)F)cc1[N+](=O)[O-] [Trifluralin] &field=Slope (linear fit), concentration in hair versus level of exposure returns 1.107

These data points were gathered from paper PMC5515982.
